Target: hSMVT (Homo sapiens, UniProt Q9Y289)
Sequence (Q9Y289 1-635): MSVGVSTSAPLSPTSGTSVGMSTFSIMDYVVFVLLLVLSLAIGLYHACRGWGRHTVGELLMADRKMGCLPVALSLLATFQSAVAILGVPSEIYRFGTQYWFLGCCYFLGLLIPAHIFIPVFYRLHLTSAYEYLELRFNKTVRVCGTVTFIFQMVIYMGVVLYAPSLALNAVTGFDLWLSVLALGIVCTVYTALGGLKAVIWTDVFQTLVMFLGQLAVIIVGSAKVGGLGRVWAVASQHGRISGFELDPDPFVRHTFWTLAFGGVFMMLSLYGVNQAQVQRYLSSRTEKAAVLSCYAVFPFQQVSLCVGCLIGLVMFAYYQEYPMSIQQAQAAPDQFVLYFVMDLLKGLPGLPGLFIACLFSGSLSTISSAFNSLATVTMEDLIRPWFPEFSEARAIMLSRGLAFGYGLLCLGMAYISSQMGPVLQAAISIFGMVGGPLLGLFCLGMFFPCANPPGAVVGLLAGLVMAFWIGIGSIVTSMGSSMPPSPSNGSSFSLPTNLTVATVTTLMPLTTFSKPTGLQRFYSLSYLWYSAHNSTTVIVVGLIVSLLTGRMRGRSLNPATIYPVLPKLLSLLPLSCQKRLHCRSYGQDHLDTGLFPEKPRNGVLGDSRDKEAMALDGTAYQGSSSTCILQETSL
Experiment: Radiolabeled competition assay in SMVT-expressing CHO cells
Assay type: cell-based
Settings: radiolabeled competition assay in SMVT-expressing CHO cells; read-out: IC50
property measured: pIC50
Give only the number. pIC50 is defined as minus log10 of concentration in molar units.

| compound | numeric value |
| --- | --- |
| CC(OC(=O)NCC1(CC(=O)O)CCCCC1)OC(=O)C(C)C (centres unmarked) [(6)] | 4.00 |

Could you now consider this next compound?
(Q) Look at this compound and give its reported pIC50. CC(C)(C)C(=O)OCOC(=O)NCC1(CC(=O)O)CCCCC1 [(1)]
(A) 3.35
